Reference for the values: patent US10703748B2

system: α-smooth muscle actin (aSMA) positive LL29 cells; experiment: Inhibition of the fibrotic process: αSMA staining in TGF-β1 treated LL29 fibroblasts from IPF patients; conditions: Homo sapiens, Fibroblast, 96 h
Field: EC50. Provide a value for each of the compounds that follow.
Your answer should be a plain number; it is taken to be in nM.

What EC50 value was documented for this compound, "CN(C)C1CCN(c2cc(C(=O)Nc3cc4nc(-c5cn(C)nn5)ccc4cn3)ccn2)CC1" ? 3480

Also, "CN(C)Cc1ccc(C(=O)Nc2cc3nc(-c4cnn(C)c4)ccc3cn2)cc1" please. 1300

Also, "COCCN[C@H]1CC[C@H](C(=O)Nc2cc3nc(-c4cnn(C)c4)ccc3cn2)CC1" please. 1140

---

Field: pEC50. Provide a value for each of the molecules that follow.
test system: α-smooth muscle actin (aSMA) positive LL29 cells; assay: Inhibition of the fibrotic process: αSMA staining in TGF-β1 treated LL29 fibroblasts from IPF patients; settings: Homo sapiens, Fibroblast, 96 h
Reminder that pEC50 is minus the log10 of a molar concentration.

What pEC50 value was documented for this molecule, "CC(C)Nc1cncc(-c2ccc3cnc(NC(=O)c4cn(C5CCNCC5)nn4)cc3n2)n1" ? 5.30

Also, CC(C)CN1CCC(CC(=O)Nc2cc3cc(-c4cnn(C)c4)ncc3cn2)C1 (centres unmarked) please. 6.78

Also, "CN1CCN(c2cc(C(=O)Nc3cc4cc(-c5ccc(N)nc5)cnc4cn3)ccn2)CC1" please. 5.46

Also, "CCN(CC)CC(=O)Nc1cc2nc(-c3cnn(C)c3CN3CCCCC3)ccc2cn1" please. 5.41

Also, "CC(C)OC(=O)N1CCC(n2cc(C(=O)Nc3ncc4ccc(-c5cnn(C)c5)cc4n3)cn2)CC1" please. 5.86

Also, "Cn1cc(-c2cc3cc(NC(=O)[C@H]4CCCN4)ncc3cn2)cn1" please. 6.05

Also, "O=C(Nc1ncc2ccc(-c3cncs3)cc2n1)[C@H]1CC[C@H](CN2CC(F)C2)CC1" please. 5.62

Also, "CN(C)CCNc1cc(C(=O)Nc2cc3nc(-c4cnn(C)c4)ccc3cn2)ccn1" please. 6.14

---

test system: Tau phosphorylation at Ser396 (pSer396); assay: Tau phosphorylation at Ser396 (pSer396) in SH-SY5Y cells, ELISA / western blot; assay type: cell-based, human; settings: Homo sapiens; SH-SY5Y cells, overnight (16-18 h); read-out: pSer396 Tau EC50;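 note: decrease in pSer396 Tau measured in lysates of treated cells by colorimetric ELISA or chemiluminescent western blot, same pSer396 antibody for both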
reported_endpoint: EC50 (nM)
Your answer should be a plain number; it is taken to be in nM.

What EC50 value was documented for this compound, "Cn1cc(-c2cc3cc(NC(=O)C4CCN(S(C)(=O)=O)CC4)ncc3cn2)cn1" ? 43

Also, "Cn1cc(-c2ccc3cnc(NC(=O)[C@H]4CCCN4)cc3n2)cn1" please. 699

Also, "Cn1cc(-c2ccc3cnc(NC(=O)CCc4ccccc4)cc3n2)cn1" please. 3000

---

target: DYRK1A kinase (Homo sapiens); assay: DYRK1A kinase activity (Ser/Thr 18 peptide Z-lyte FRET assay); details: recombinant DYRK1A, 30 μM ATP, one hour at room temperature;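 note: kinase activity read as coumarin/fluorescein emission ratio after development step, with unphosphorylated and phosphorylated peptide forms setting 0% and 100% controls, values from dose-response curves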
Field: log10(EC50). Provide a value for each of the molecules that follow.
Use the decimal logarithm of EC50 (nM).

What log10(EC50) value was documented for this molecule, "Cn1cc(-c2cc3cc(NC(=O)C4CCN(S(C)(=O)=O)CC4)ncc3cn2)cn1" ? 0.30

Also, "CN1CCN(c2ncc(C(=O)Nc3cc4cc(-c5cnn(C)c5)ncc4cn3)s2)CC1" please. 0.70

Also, "O=C(Nc1cc2cc(-c3cncc(OCC4CNC4)n3)cnc2cn1)c1ccc(F)cc1" please. 2.69

Also, "CN1CCC(C(=O)Nc2cc3nc(-c4cnsc4)ccc3cn2)CC1" please. 3.00

Also, "Cn1cc(-c2cc3cc(NC(=O)c4ccnc(OC5CCNCC5)c4)ncc3cn2)cn1" please. 1.20

Also, "Cn1cc(-c2ccc3cnc(NC(=O)C4CC4)nc3c2)cn1" please. 1.11

Also, "CN(CC(=O)Nc1ncc2ccc(-c3cnn(C)c3)cc2n1)C1CCC1" please. 1.65

Also, "O=C(Nc1cc2cc(-c3cnco3)cnc2cn1)[C@H]1CC[C@H](CO)CC1" please. 1.46

Also, "Cn1cc(-c2ccc3cnc(NC(=O)C4CCN(CC5(C)COC5)CC4)nc3c2)nn1" please. 2.02

Also, "Cc1ncc(-c2ccc3cnc(NC(=O)c4ccncc4)cc3n2)s1" please. 0.90

Also, "CN1CCN(c2cc(C(=O)Nc3cc4cc(-c5cnn(C)c5N)cnc4cn3)ccn2)CC1" please. 1.23

Also, "Cn1cc(-c2ccc3cnc(NC(=O)c4ccc5ccoc5c4)cc3n2)cn1" please. 0.70

Also, "Cn1ncc(-c2cc3cc(NC(=O)C4CC5(C4)CN(CCF)C5)ncc3cn2)c1CN1CCCCC1" please. 1.68

Also, "Cn1cc(-c2ccc3cnc(NC(=O)C4CC4)cc3n2)cn1" please. 1.26

Also, "CC(C)OC(=O)N1CCC(n2cc(C(=O)Nc3ncc4ccc(-c5cnn(C)c5)cc4n3)cn2)CC1" please. 0.90

Also, "CN1CCC(Nc2cncc(C(=O)Nc3cc4cc(-c5cnn(C)c5)ncc4cn3)c2)CC1" please. 0.60
